test system: NCI-H23; assay: NCI single dose (10 µM) SRB screen; type: cell-based, human; details: non-small cell lung cancer, 48 h
Reported GI% NCI-H23 values for a set of molecules

Below, each entry is followed by its recorded GI% NCI-H23 result.
[[record]]
molecule = "CCOC(=O)C1=C(C)NC(C)=C(C(=O)OCC(C)C)C1c1cccc(C#N)c1 (racemic)"
outcome_measure = "GI% NCI-H23"
measured = "24%"

[[record]]
molecule = "CC1=C(C(=O)OC(C)(C)C)C(c2cccc(C#N)c2)C(C(=O)OC(C)(C)C)=C(C)N1"
outcome_measure = "GI% NCI-H23"
measured = "13%"

[[record]]
molecule = "CCOC(=O)C1=C(C)NC(C)=C(C(=O)OCc2ccccc2)C1c1cccc(C#N)c1 (racemic)"
outcome_measure = "GI% NCI-H23"
measured = "37%"

[[record]]
molecule = "CC1=C(C(=O)OCc2ccccc2)C(c2cccc(C#N)c2)C(C(=O)OCc2ccccc2)=C(C)N1"
outcome_measure = "GI% NCI-H23"
measured = "23%"


Now consider the entry below.
Please look up its GI% NCI-H23: `CC1=C(C(=O)OCC(C)C)C(c2cccc(C#N)c2)C(C(=O)OCC(C)C)=C(C)N1` 14%

* * *

test system: MALME-3M; test: NCI single dose (10 µM) SRB screen; type: cell-based, human; conditions: melanoma, 48 h
Consider the following molecules and their measured GI% MALME-3M readings.

[[record]]
molecule = "CC1=C(C(=O)OCc2ccccc2)C(c2cccc(C#N)c2)C(C(=O)OCc2ccccc2)=C(C)N1"
outcome_measure = "GI% MALME-3M"
measured = "32%"

[[record]]
molecule = "CCOC(=O)C1=C(C)NC(C)=C(C(=O)OCc2ccccc2)C1c1cccc(C#N)c1 (racemic)"
outcome_measure = "GI% MALME-3M"
measured = "62%"


Please provide the recorded GI% MALME-3M for COC(=O)C1=C(C)NC(C)=C(C(=O)OCc2ccccc2)C1c1cccc(C#N)c1 (racemic) , tested on MALME-3M. 24%

* * *

system: Candida albicans; experiment: Agar well diffusion method; details: relative to clotrimazole
Here the recorded % activity index, C. albicans is given for each entry.
Only the number, expressed in %, is required.

[[record]]
molecule = "CCOC(=O)C1=C(C)NC(C)=C(C(=O)OC(C)C)C1c1cccc(C#N)c1 (racemic)"
test_system = "Candida albicans"
measured = 29.6

[[record]]
molecule = "Clc1ccccc1C(c1ccccc1)(c1ccccc1)n1ccnc1 [Clotrimazole, reference compound]"
test_system = "Candida albicans"
measured = 100

[[record]]
molecule = "CC1=C(C(=O)OC(C)C)C(c2cccc(C#N)c2)C(C(=O)OC(C)C)=C(C)N1"
test_system = "Candida albicans"
measured = 37


Entry under review: `CCOC(=O)C1=C(C)NC(C)=C(C(=O)OCC)C1c1cccc(C#N)c1` . Reported % activity index, C. albicans? 55.5

Can you handle `COC(=O)C1=C(C)NC(C)=C(C(=O)OC)C1c1cccc(C#N)c1` next? 48.1

* * *

Mean GI% values by entry
test system: NCI 60 cancer cell lines; experiment: NCI single dose (10 µM) SRB screen, mean over panel; type: cell-based, human; settings: mean over 60 cell lines, 48 h
Enter your answer as a number in %; do not include the unit.

[[record]]
molecule = "CCOC(=O)C1=C(C)NC(C)=C(C(=O)OC)C1c1cccc(C#N)c1 (racemic) [Compound 2g]"
measured = "−1"


What value of measured Mean GI% is listed for COC(=O)C1=C(C)NC(C)=C(C(=O)OC)C1c1cccc(C#N)c1 [Compound 1a] ? −4

Further, for CCCC1=C(C(=O)OCC)C(c2cccc(C#N)c2)C(C(=O)OC)=C(C)N1 (racemic) [Compound 2f] ? 1
